# System Under Test: Voltage-gated inwardly rectifying potassium channel KCNH2 (Homo sapiens)
# Sequence (Q12809 whole entry): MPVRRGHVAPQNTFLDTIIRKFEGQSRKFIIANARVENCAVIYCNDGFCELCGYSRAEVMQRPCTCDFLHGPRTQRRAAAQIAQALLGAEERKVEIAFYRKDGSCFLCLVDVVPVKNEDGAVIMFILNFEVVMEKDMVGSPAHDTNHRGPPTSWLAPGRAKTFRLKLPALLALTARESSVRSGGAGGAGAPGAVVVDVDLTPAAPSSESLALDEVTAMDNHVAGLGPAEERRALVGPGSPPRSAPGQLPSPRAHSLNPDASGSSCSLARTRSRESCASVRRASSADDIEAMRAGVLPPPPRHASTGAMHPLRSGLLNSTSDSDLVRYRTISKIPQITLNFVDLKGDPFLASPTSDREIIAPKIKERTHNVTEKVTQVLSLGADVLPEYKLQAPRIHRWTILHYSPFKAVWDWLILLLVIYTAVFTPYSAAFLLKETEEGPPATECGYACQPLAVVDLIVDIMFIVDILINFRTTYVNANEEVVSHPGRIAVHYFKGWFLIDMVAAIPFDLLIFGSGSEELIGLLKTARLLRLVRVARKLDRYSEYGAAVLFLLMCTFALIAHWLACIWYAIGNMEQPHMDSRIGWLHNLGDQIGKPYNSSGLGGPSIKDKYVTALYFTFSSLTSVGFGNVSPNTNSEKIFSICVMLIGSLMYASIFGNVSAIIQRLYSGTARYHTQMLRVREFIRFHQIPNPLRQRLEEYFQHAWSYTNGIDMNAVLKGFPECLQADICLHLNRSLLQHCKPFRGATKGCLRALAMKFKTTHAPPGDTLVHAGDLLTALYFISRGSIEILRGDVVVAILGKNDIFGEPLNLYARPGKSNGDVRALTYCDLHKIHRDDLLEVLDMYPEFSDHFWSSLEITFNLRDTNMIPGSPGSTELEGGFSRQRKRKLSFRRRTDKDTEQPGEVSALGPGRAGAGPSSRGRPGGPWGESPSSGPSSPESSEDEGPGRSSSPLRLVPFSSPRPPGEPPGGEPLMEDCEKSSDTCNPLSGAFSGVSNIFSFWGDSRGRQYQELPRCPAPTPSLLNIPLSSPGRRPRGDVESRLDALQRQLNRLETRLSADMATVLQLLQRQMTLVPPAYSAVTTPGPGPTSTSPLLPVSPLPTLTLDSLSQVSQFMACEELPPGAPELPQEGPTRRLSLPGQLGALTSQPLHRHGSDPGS
# Test: Inhibition of human recombinant ERG channel expressed in HEK293 cells
pIC50: −log10 of the molar value.
Rule: pIC50 of 6 or more gives Y; anything lower gives N.

In [3]: df
Out[3]:
                    structure_smiles_string                         system_under_test  label_value
0  Cc1cccc(N2CCN(CCNC(=O)c3cc(C(C)(C)C)n(C)c3C)CC2)c1C  Voltage-gated inwardly rectifying potassium channel KCNH2 (Homo sapiens)            N
1  CCCn1c(-c2ccccc2)cc(C(=O)NCCCN2CCN(c3cccc(Cl)c3Cl)CC2)c1C  Voltage-gated inwardly rectifying potassium channel KCNH2 (Homo sapiens)            Y
2  Cc1c(C(=O)NCCCN2CCN(c3cccc(Cl)c3Cl)CC2)cc(-c2cccnc2)n1C  Voltage-gated inwardly rectifying potassium channel KCNH2 (Homo sapiens)            N
3  Cc1[nH]c(-c2ccccc2)cc1C(=O)NCCCN1CCN(c2cccc(Cl)c2Cl)CC1  Voltage-gated inwardly rectifying potassium channel KCNH2 (Homo sapiens)            Y
4  Cc1c(C(=O)N(C)CCCN2CCN(c3cccc(Cl)c3Cl)CC2)cc(-c2ccccc2)n1C  Voltage-gated inwardly rectifying potassium channel KCNH2 (Homo sapiens)            Y

----------
Below is a list of entries, each paired with its recorded pIC50 value.
# System Under Test: 5-hydroxytryptamine receptor 2C (Homo sapiens)
# Test: Displacement of [3H]mesulergine from human recombinant 5HT2C expressed in CHOK1 cells
pIC50: −log10 of the molar value.
Observation Type: pIC50

>>> print(df.to_string())
                    structure_smiles_string  recorded_number
0  CCCn1c(-c2ccccc2)cc(C(=O)NCCCN2CCN(c3cccc(OC)c3)CC2)c1C             6.34
1  Cc1cccc(N2CCN(CCNC(=O)c3cc(C(C)(C)C)n(C)c3C)CC2)c1C             5.65
2  CCCn1c(-c2ccccc2)cc(C(=O)NCCCN2CCN(c3ccc(Cl)c(Cl)c3)CC2)c1C             6.49

----------
# System Under Test: UniProt:P31645
# Sequence (P31645 whole entry): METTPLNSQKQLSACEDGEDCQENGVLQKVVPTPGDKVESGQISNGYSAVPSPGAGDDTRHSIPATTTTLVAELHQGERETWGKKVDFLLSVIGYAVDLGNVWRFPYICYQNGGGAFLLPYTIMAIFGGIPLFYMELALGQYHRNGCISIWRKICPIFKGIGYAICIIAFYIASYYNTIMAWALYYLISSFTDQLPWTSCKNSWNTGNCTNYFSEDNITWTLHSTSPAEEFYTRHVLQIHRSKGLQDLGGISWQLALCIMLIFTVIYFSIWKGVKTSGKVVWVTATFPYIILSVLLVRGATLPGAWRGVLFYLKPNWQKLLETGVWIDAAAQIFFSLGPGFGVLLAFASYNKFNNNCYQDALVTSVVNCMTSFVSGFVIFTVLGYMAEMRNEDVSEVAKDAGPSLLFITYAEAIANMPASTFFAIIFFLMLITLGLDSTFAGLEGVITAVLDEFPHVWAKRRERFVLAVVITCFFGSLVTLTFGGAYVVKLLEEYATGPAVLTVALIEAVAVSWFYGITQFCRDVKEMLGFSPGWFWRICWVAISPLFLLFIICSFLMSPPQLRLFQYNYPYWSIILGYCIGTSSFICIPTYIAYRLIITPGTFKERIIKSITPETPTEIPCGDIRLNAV
# Test: Displacement of [3H]imipramine from human SERT expressed in HEK293 cells
pIC50: −log10 of the molar value.
Rule: pIC50 of 7 or more gives criterion met; anything lower gives criterion not met.

In [3]: df
Out[3]:
                    structure_smiles_string        label_value
0  CCn1c(-c2ccc(Cl)cc2)cc(C(=O)NCCCN2CCN(c3cccc(Cl)c3Cl)CC2)c1C  criterion not met
1  CCCn1c(-c2ccccc2)cc(C(=O)NCCCN2CCN(c3ccc(Cl)c(Cl)c3)CC2)c1C  criterion not met
2  CCCn1c(-c2ccccc2)cc(C(=O)NCCCN2CCN(c3cccc(Br)c3)CC2)c1C  criterion not met
3  CCCn1c(-c2ccccc2)cc(C(=O)NCCCN2CCN(c3cccc(OC)c3)CC2)c1C  criterion not met
4  Cc1ccc2cccc(N3CCN(CCCNC(=O)c4cc(-c5ccccc5)n(C)c4C)CC3)c2n1  criterion not met
5  Cc1c(C(=O)NCCCN2CCN(c3ccncc3)CC2)cc(-c2ccccc2)n1C  criterion not met
6  Cc1c(C(=O)NCCN2CCN(c3cccc(Cl)c3Cl)CC2)cc(C(C)(C)C)n1C      criterion met
7  Cc1c(C(=O)NCCCN2CCN(c3cccc4cccnc34)CC2)cc(-c2ccccc2)n1C      criterion met

----------
# System Under Test: UniProt:P28223
# Test: Displacement of [3H]ketanserin from human recombinant 5HT2A expressed in CHOK1 cells
Observation Type: IC50

>>> print(df.to_string())
                    structure_smiles_string  observation_type   result
0  Cc1c(C(=O)NCCN2CCN(c3cccc(Cl)c3Cl)CC2)cc(C(C)(C)C)n1C              IC50    50 nM
1  Cc1c(C(=O)NCCCN2CCN(c3ccncc3)CC2)cc(-c2ccccc2)n1C              IC50  4560 nM
2  CCn1c(-c2ccc(Cl)cc2)cc(C(=O)NCCCN2CCN(c3cccc(Cl)c3Cl)CC2)c1C              IC50   153 nM
3  CCCn1c(-c2ccccc2)cc(C(=O)NCCCN2CCN(c3cccc(C(F)(F)F)c3)CC2)c1C              IC50   410 nM
4  CCCn1c(-c2ccccc2)cc(C(=O)NCCCN2CCN(c3cccc(OC)c3)CC2)c1C              IC50   153 nM
5  Cc1c(C(=O)NCCCN2CCN(c3cccc(Cl)c3Cl)CC2)cc(-c2cccnc2)n1C              IC50   209 nM
6  Cc1c(C(=O)NCCN2CCN(c3cccc(Cl)c3Cl)CC2)c(C)n(C)c1-c1ccccc1              IC50    33 nM
7  CCCn1c(-c2ccccc2)cc(C(=O)NCCCN2CCN(c3cccc(Br)c3)CC2)c1C              IC50   221 nM
8  Cc1c(C(=O)NCCCN2CCN(c3cccc4cccnc34)CC2)cc(-c2ccccc2)n1C              IC50   352 nM

----------
# System Under Test: 5-hydroxytryptamine receptor 2A (Homo sapiens, UniProt P28223)
# Sequence (P28223 whole entry): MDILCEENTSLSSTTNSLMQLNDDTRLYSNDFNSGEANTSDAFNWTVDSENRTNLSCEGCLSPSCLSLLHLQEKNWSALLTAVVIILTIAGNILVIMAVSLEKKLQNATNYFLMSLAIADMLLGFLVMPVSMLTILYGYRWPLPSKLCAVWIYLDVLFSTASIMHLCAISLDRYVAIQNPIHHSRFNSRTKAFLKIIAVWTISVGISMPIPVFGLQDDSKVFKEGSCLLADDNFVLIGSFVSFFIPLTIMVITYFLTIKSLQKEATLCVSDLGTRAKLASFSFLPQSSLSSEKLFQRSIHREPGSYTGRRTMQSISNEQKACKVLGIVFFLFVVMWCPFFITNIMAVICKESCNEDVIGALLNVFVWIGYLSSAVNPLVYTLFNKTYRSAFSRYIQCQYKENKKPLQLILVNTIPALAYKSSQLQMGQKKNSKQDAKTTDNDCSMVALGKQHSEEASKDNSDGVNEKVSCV
# Test: Displacement of [3H]ketanserin from human recombinant 5HT2A expressed in CHOK1 cells
Observation Type: log10 IC50 (log10 of the value in µM)

In [3]: df
Out[3]:
                    structure_smiles_string  recorded_number
0  CCCn1c(-c2ccccc2)cc(C(=O)N(C)CCCN2CCN(c3cccc(C)c3C)CC2)c1C            -1.77
1  CCCn1c(-c2ccccc2)cc(C(=O)NCCCN2CCN(c3ccc(Cl)c(Cl)c3)CC2)c1C            -1.27
2  CCCn1c(-c2ccccc2)cc(C(=O)NCCCN2CCN(c3cccc4cccnc34)CC2)c1C            -0.68
3  CCCn1c(-c2ccccc2)cc(C(=O)NCCCN2CCN(c3cc(F)ccc3F)CC2)c1C            -0.87
4  Cc1c(C(=O)NCCCN2CCN(c3ccccc3Br)CC2)cc(-c2ccccc2)n1C            -0.66
5  Cc1c(Cl)cccc1N1CCN(CCNC(=O)c2cc(C(C)(C)C)n(C)c2C)CC1            -1.27
6  Cc1ccc2cccc(N3CCN(CCCNC(=O)c4cc(-c5ccccc5)n(C)c4C)CC3)c2n1            -0.08
7  Cc1cccc(N2CCN(CCCNC(=O)c3cc(C(C)(C)C)n(C)c3C)CC2)c1C            -0.41
8  Cc1cccc(N2CCN(CCNC(=O)c3cc(C(C)(C)C)n(C)c3C)CC2)c1C            -1.44

----------
# System Under Test: 5-hydroxytryptamine receptor 2C (Homo sapiens, UniProt P28335)
# Sequence (P28335 whole entry): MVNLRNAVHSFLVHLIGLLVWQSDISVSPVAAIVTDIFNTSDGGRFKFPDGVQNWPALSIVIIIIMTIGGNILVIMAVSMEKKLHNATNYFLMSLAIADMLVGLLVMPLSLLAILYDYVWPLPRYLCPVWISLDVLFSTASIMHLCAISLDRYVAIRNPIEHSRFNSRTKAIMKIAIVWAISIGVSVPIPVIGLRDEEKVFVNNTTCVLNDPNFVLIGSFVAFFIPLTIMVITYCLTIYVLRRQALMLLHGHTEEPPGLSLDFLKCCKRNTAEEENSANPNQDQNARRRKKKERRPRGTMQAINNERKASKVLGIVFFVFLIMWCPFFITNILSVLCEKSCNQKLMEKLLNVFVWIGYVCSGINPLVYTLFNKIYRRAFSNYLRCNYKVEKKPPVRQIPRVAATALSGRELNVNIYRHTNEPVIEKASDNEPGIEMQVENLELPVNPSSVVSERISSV
# Test: Displacement of [3H]mesulergine from human recombinant 5HT2C expressed in CHOK1 cells
# Assay type: cell-based, CHO-K1
pIC50: −log10 of the molar value.
Observation Type: pIC50

In [3]: df
Out[3]:
                     structure_smiles_string  recorded_number
 0  Cc1[nH]c(-c2ccccn2)cc1C(=O)NCCCN1CCN(c2cccc(Cl)c2Cl)CC1             6.66
 1  Cc1c(C(=O)NCCCN2CCN(c3cccc4cccnc34)CC2)cc(-c2ccccc2)n1C             6.63
 2  Cc1cccc(N2CCN(CCCNC(=O)c3cc(C(C)(C)C)n(C)c3C)CC2)c1C             5.94
 3  CCCn1c(-c2ccccc2)cc(C(=O)NCCCN2CCN(c3cc(F)ccc3F)CC2)c1C             6.00
 4  Cc1c(C(=O)NCCCN2CCN(c3cccc(Cl)c3Cl)CC2)cc(-c2cccnc2)n1C             7.04
 5  Cc1c(C(=O)NCCCN2CCN(c3ccccc3Br)CC2)cc(-c2ccccc2)n1C             6.20
 6  Cc1c(C(=O)NCCN2CCN(c3cccc(Cl)c3Cl)CC2)c(C)n(C)c1-c1ccccc1             7.80
 7  Cc1c(Cl)cccc1N1CCN(CCNC(=O)c2cc(-c3ccccc3)n(C)c2C)CC1             6.63
 8  CCCn1c(-c2ccccc2)cc(C(=O)N(C)CCCN2CCN(c3cccc(Cl)c3Cl)CC2)c1C             7.68
 9  Cc1c(Cl)cccc1N1CCN(CCNC(=O)c2cc(C(C)(C)C)n(C)c2C)CC1             6.68
10  Cc1c(C(=O)NCCCN2CCN(c3ccncc3)CC2)cc(-c2ccccc2)n1C             5.28
11  CCn1c(-c2ccc(Cl)cc2)cc(C(=O)NCCCN2CCN(c3cccc(Cl)c3Cl)CC2)c1C             7.66
12  Cc1ccc2cccc(N3CCN(CCCNC(=O)c4cc(-c5ccccc5)n(C)c4C)CC3)c2n1             6.19
13  Cc1c(C(=O)NCCN2CCN(c3cccc(Cl)c3Cl)CC2)cc(C(C)(C)C)n1C             6.96
14  Cc1c(C(=O)N(C)CCCN2CCN(c3cccc(Cl)c3Cl)CC2)cc(-c2ccccc2)n1C             7.46
15  CCCn1c(-c2ccccc2)cc(C(=O)NCCCN2CCN(c3cccc(C(F)(F)F)c3)CC2)c1C             6.21
16  CCCn1c(-c2ccccc2)cc(C(=O)NCCCN2CCN(c3cccc(Br)c3)CC2)c1C             6.20
17  CCCn1c(-c2ccccc2)cc(C(=O)N(C)CCCN2CCN(c3cccc(C)c3C)CC2)c1C             7.92
18  CCCn1c(-c2ccccc2)cc(C(=O)NCCCN2CCN(c3cccc4cccnc34)CC2)c1C             6.38
